Cited source for all entries: patent US11965041B2

Test: Caco-2 bidirectional permeability with or without verapamil (Example 6)
Conditions: human, Caco-2, pH 7.4, Papp (AB), Mean, 10 μM, 90 min, without verapamil
endpoint: Papp A→B at 90 min, 10 μM (×10⁻⁶ cm/s)
Give your result in ×10⁻⁶ cm/s as a bare value.

Record CC(C)[C@@H]1C(=O)N[C@@H](CCCNC(=N)N)C(=O)NCC(=O)N[C@@H](CC(=O)O)C(=O)N[C@@H](C)C(=O)N(C)[C@@H](C)C(=O)N1C [Peptide 29, c(*vRGDA*A)] , field Papp A→B at 90 min, 10 μM: 0.7

----------
Assay: Log D, octanol/PBS distribution coefficient
Settings: pH 7.4, LogD, pH 7.4, reported value (mean or bound), octanol/PBS pH 7.4
endpoint: logD at 1 h

Lab note: measured logD at 1 h of CC(C)[C@@H]1C(=O)N[C@@H](CCCNC(=N)N)C(=O)NCC(=O)N[C@@H](CC(=O)O)C(=O)N[C@@H](C)C(=O)N(C)[C@@H](C)C(=O)N1C [Peptide 29, c(*vRGDA*A)] was < -1

----------
Assay: Caco-2 permeability study (Examples 1, 2 and 4, Table 3)
Type: in vitro ADME, human
Conditions: Caco-2, Table 3, n = 3; read-out: Papp AB
Numbered stars: 1 amine (or outer) side, 2 acyl side, 3 side chain; on linkers, the order of the positions; unused ones are H or OH. Square brackets hold non-standard residues; d marks the D form. Peptide text beside a SMILES is read from it. X1 = CCCCCCOC(=O)N=C(NCCC[C@@H](N[*:1])C(=O)[*:2])NC(=O)OCCCCCC; NMeA = CN[C@@H](C)C(=O)O
endpoint: Papp A→B (×10⁻⁶ cm/s)
All answers are understood in ×10⁻⁶ cm/s, so give the number only.

Reported Papp A→B of CCCCCCOC(=O)N=C(NCCC[C@H]1NC(=O)[C@H](C)N(C)C(=O)[C@H](C)N(C)C(=O)[C@H](C)NC(=O)[C@H](CC(=O)OC)NC(=O)CNC1=O)NC(=O)OCCCCCC [Peptide 23P, c(r(Hoc)2GD(OMe)A*A*A)] (cyclo(A[NMeA][NMeA][X1]GD(OMe))) : 1.77

----------
Experiment: Log D, octanol/PBS distribution coefficient
Details: pH 7.4, LogD, pH 7.4, single determinations, octanol/PBS pH 7.4, triplicate values
endpoint: logD at 1 h
Please reply with the value in numeric form only.

Value of measured logD at 1 h for the entry CC(C)[C@@H]1C(=O)N[C@@H](CCCNC(=N)N)C(=O)NCC(=O)N[C@@H](CC(=O)O)C(=O)N[C@@H](C)C(=O)N(C)[C@@H](C)C(=O)N1C [Peptide 29, c(*vRGDA*A)] : -1.75

----------
Target: human αvβ3-integrin (Homo sapiens, UniProt P05106+P06756)
Sequence (P06756 31-992 limits assumed): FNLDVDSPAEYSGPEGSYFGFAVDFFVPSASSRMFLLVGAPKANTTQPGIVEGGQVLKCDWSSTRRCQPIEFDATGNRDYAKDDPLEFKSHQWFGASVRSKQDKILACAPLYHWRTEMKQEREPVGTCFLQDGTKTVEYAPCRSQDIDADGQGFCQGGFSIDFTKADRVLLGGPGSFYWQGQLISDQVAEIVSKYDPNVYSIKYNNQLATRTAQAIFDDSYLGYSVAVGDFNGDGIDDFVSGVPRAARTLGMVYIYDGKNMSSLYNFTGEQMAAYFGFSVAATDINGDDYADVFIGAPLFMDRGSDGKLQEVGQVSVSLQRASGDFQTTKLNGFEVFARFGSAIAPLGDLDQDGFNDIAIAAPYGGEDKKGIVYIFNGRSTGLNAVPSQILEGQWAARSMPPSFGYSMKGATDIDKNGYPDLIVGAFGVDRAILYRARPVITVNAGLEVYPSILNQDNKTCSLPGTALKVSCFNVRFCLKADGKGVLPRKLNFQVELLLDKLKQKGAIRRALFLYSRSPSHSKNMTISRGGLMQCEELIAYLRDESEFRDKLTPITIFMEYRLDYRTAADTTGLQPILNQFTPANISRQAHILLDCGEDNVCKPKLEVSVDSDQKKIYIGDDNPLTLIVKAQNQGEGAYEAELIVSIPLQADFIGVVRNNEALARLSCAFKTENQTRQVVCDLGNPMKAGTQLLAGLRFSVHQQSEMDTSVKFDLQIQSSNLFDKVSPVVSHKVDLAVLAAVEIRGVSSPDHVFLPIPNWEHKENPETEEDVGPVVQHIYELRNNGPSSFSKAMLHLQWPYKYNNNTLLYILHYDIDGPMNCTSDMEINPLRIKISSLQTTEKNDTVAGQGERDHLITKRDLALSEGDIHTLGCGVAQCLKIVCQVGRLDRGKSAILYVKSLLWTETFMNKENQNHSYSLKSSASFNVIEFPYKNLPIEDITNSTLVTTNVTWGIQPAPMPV
Sequence (P05106 27-718 limits assumed): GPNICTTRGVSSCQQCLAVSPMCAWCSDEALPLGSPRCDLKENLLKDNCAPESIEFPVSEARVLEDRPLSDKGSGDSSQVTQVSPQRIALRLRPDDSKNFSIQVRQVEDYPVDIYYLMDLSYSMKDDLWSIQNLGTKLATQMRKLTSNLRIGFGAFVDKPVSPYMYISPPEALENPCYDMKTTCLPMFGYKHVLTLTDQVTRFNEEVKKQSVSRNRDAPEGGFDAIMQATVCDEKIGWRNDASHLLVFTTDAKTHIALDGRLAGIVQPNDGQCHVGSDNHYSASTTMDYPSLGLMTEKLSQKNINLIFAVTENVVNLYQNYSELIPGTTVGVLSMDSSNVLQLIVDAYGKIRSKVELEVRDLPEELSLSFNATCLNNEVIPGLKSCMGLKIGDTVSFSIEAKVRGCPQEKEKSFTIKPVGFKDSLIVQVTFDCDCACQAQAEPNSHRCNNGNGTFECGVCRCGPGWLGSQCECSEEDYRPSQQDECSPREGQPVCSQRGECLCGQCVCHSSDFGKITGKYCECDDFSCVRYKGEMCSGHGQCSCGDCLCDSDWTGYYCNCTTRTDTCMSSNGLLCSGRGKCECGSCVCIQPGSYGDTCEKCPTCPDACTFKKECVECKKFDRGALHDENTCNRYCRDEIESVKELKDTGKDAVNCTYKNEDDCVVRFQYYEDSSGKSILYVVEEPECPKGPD
Assay: Solid-phase integrin binding assay, αvβ3
Settings: Table 1
endpoint: pIC50
Quick note: pIC50 means taking -log10 of the concentration in moles per liter.

Entry C[C@@H]1NC(=O)[C@H](CC(=O)O)NC(=O)CNC(=O)[C@H](CCCNC(=N)N)NC(=O)[C@@H](Cc2ccccc2)N(C)C(=O)[C@H](C)N(C)C1=O [Peptide 30, c(*fRGDA*A)] , pIC50 reported as 9.22

----------
Settings: Caco-2, Papp (AB), replicate 3
Numbered stars: 1 amine (or outer) side, 2 acyl side, 3 side chain; on linkers, the order of the positions; unused ones are H or OH. Square brackets hold non-standard residues; d marks the D form. Peptide text beside a SMILES is read from it. X2 = CCCCCCOC(=O)N=C(N)NCCC[C@H](N[*:1])C(=O)[*:2]; dNMeV = CN[C@@H](C(=O)O)C(C)C; NMeA = CN[C@@H](C)C(=O)O
Assignment: determine reported Papp A→B for the given molecules.
# value in ×10⁻⁶ cm/s; strip the unit string

Notebook: `CCCCCCOC(=O)N=C(NCCC[C@@H]1NC(=O)[C@H](C(C)C)N(C)C(=O)[C@@H](Cc2ccccc2)NC(=O)[C@H](CC(=O)OC)NC(=O)CNC1=O)NC(=O)OCCCCCC` , Papp A→B read as 0.2

Papp A→B recorded for this molecule, CCCCCCOC(=O)N=C(N)NCCC[C@@H]1NC(=O)[C@@H](C(C)C)N(C)C(=O)[C@H](C)N(C)C(=O)[C@H](C)NC(=O)[C@H](CC(=O)OC)NC(=O)CNC1=O [#29P-Hoc] (cyclo(A[NMeA][dNMeV][X2]GD(OMe))) , is 0.2

----------
Provide the reported efflux ratio of each item.
Assay: Caco-2 permeability study (Examples 1, 2 and 4, Table 3)
Format: in vitro ADME, human
Conditions: Caco-2; Table 3
Numbered stars: 1 amine (or outer) side, 2 acyl side, 3 side chain; on linkers, the order of the positions; unused ones are H or OH. Square brackets hold non-standard residues; d marks the D form. Peptide text beside a SMILES is read from it. X3 = CCCCCCOC(=O)N=C(NCCC[C@H](C(=O)[*:2])N(C)[*:1])NC(=O)OCCCCCC; X1 = CCCCCCOC(=O)N=C(NCCC[C@@H](N[*:1])C(=O)[*:2])NC(=O)OCCCCCC; NMeA = CN[C@@H](C)C(=O)O
Write the number on its own, no unit after it.

Recorded result, CCCCCCOC(=O)N=C(NCCC[C@H]1NC(=O)[C@H](C)N(C)C(=O)[C@H](C)N(C)C(=O)[C@H](C)NC(=O)[C@H](CC(=O)OC)NC(=O)CNC1=O)NC(=O)OCCCCCC [Peptide 23P, c(r(Hoc)2GD(OMe)A*A*A)] (cyclo(A[NMeA][NMeA][X1]GD(OMe))) , efflux ratio: 42.2

For CCCCCCOC(=O)N=C(NCCC[C@@H]1C(=O)NCC(=O)N[C@@H](CC(=O)OC)C(=O)N[C@@H](C)C(=O)N(C)[C@@H](C)C(=O)N[C@@H](C)C(=O)N1C)NC(=O)OCCCCCC [Peptide 5P, c(*r(Hoc)2GD(OMe)A*AA)] (cyclo(A[NMeA]A[X3]GD(OMe))) the compound record lists efflux ratio as 36.7

----------
Experiment: Caco-2 permeability study (Examples 1, 2 and 4, Table 3)
Assay type: in vitro ADME, human
Conditions: human, Caco-2, running text, unit inferred; read-out: Caco-2 A-to-B Papp
endpoint: Papp A→B at 150 min, 10 μg/ml (×10⁻⁶ cm/s)
Response body: numeric value in ×10⁻⁶ cm/s, unit text excluded.

// field: Papp A→B at 150 min, 10 μg/ml; key: C[C@@H]1NC(=O)[C@H](C)N(C)C(=O)[C@H](C)NC(=O)[C@H](CC(=O)O)NC(=O)CNC(=O)[C@@H](CCCNC(=N)N)N(C)C1=O [Peptide 5, c(*rGDA*AA)] ; value = 0.3

----------
Test: Caco-2 permeability study (Examples 1, 2 and 4, Table 3)
Format: in vitro ADME, human
Conditions: Caco-2, unit inferred; read-out: Caco-2 A-to-B Papp (converted)
Numbered stars: 1 amine (or outer) side, 2 acyl side, 3 side chain; on linkers, the order of the positions; unused ones are H or OH. Square brackets hold non-standard residues; d marks the D form. Peptide text beside a SMILES is read from it. X3 = CCCCCCOC(=O)N=C(NCCC[C@H](C(=O)[*:2])N(C)[*:1])NC(=O)OCCCCCC; NMeA = CN[C@@H](C)C(=O)O
Please provide measured Papp A→B for the entries that follow.
Give your result in ×10⁻⁶ cm/s as a bare value.

So for CCCCCCOC(=O)N=C(NCCC[C@@H]1C(=O)NCC(=O)N[C@@H](CC(=O)OC)C(=O)N[C@@H](C)C(=O)N(C)[C@@H](C)C(=O)N[C@@H](C)C(=O)N1C)NC(=O)OCCCCCC [Peptide 5P, c(*r(Hoc)2GD(OMe)A*AA)] (cyclo(A[NMeA]A[X3]GD(OMe))) , the logged Papp A→B turned out to be 0.6

// field: Papp A→B; key: CCCCCCOC(=O)N=C(NCCC[C@@H]1NC(=O)[C@@H](C)N(C)C(=O)[C@H](C)N(C)C(=O)[C@H](C)NC(=O)[C@H](CC(=O)OC)NC(=O)CNC1=O)NC(=O)OCCCCCC [Peptide 12P, c(*aR(Hoc)2GD(OMe)A*A)] ; value = 0.785

----------
Test: Caco-2 bidirectional permeability with or without verapamil (Example 6)
Conditions: human, Caco-2, pH 7.4, Papp (BA), replicate 2, 10 μM, 90 min, without verapamil
endpoint: Papp B→A at 90 min, 10 μM (×10⁻⁶ cm/s)
// return numeric value only (unit: ×10⁻⁶ cm/s, not printed)

According to the records, this molecule CC(C)[C@@H]1C(=O)N[C@@H](CCCNC(=N)N)C(=O)NCC(=O)N[C@@H](CC(=O)O)C(=O)N[C@@H](C)C(=O)N(C)[C@@H](C)C(=O)N1C [Peptide 29, c(*vRGDA*A)] displays Papp B→A at 90 min, 10 μM of 0.4
